Below: a set of entries, each annotated with reported normalized RNA/DNA level with ligand (log10).
B1: library; a variant is named by its letters at N, in order (parent)
chain: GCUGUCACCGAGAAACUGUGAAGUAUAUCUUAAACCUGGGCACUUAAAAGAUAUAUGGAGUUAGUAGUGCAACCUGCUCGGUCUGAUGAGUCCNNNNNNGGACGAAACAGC

- Variants of: B1
- experimentDescription: normalized RNA/DNA level with ligand (relative to sTRSVctl = 100) (log10 (% of sTRSVctl)); HEK293T; ligand: cyclic di-GMP (c-di-GMP-II aptamer); ligand concentration (+) RNA-Seq: 1 mM; higher = less ribozyme self-cleavage, higher mRNA level
- assayContext: reporter: mCherry (pCS4076), ligand present: yes
In your answer, state the number alone without any accompanying words.

Consider the worked cases shown below.
GCUGUCACCGAGAAACUGUGAAGUAUAUCUUAAACCUGGGCACUUAAAAGAUAUAUGGAGUUAGUAGUGCAACCUGCUCGGUCUGAUGAGUCCCCCGUGGGACGAAACAGC [CCCGUG] | 1.8
GCUGUCACCGAGAAACUGUGAAGUAUAUCUUAAACCUGGGCACUUAAAAGAUAUAUGGAGUUAGUAGUGCAACCUGCUCGGUCUGAUGAGUCCUAUGAUGGACGAAACAGC [UAUGAU] | 1.79
GCUGUCACCGAGAAACUGUGAAGUAUAUCUUAAACCUGGGCACUUAAAAGAUAUAUGGAGUUAGUAGUGCAACCUGCUCGGUCUGAUGAGUCCCCAGUUGGACGAAACAGC [CCAGUU] | 1.87
GCUGUCACCGAGAAACUGUGAAGUAUAUCUUAAACCUGGGCACUUAAAAGAUAUAUGGAGUUAGUAGUGCAACCUGCUCGGUCUGAUGAGUCCGCUAUGGGACGAAACAGC [GCUAUG] | 1.72
GCUGUCACCGAGAAACUGUGAAGUAUAUCUUAAACCUGGGCACUUAAAAGAUAUAUGGAGUUAGUAGUGCAACCUGCUCGGUCUGAUGAGUCCGACUUAGGACGAAACAGC [GACUUA] | 1.76

# context switch: different variant, same normalized RNA/DNA level with ligand (log10)
According to the records, this variant GCUGUCACCGAGAAACUGUGAAGUAUAUCUUAAACCUGGGCACUUAAAAGAUAUAUGGAGUUAGUAGUGCAACCUGCUCGGUCUGAUGAGUCCUCGCUUGGACGAAACAGC [UCGCUU] displays normalized RNA/DNA level with ligand (log10) of 1.84
